System: MDA-N
Experiment: NCI tumour cell line growth inhibition, 48 h
Overview of reported TGI across a group of compounds:

Reference set (2 entries):
| compound | TGI |
| --- | --- |
| CCOC(=O)NC(=S)c1ccc(O)c2ccccc12 | > 100 µM |
| COc1ccc2c(CCNS(=O)(=O)c3ccccc3)c(C(C)=O)[nH]c2c1 | > 100 µM |

Given the compound N#CCCN(CCC#N)c1ccc(C(N=Nc2ccc(Cl)cc2)=Nc2ccc(F)cc2)cc1 , what is its reported TGI?
> 100 µM

Given the compound Oc1ccc(-c2cn3cc(C(F)(F)F)ccc3n2)cc1 , what is its reported TGI?
> 100 µM

Given the compound CC(=O)Oc1c(C)c2c(c3ccccc13)OC(C)(C)C2 , what is its reported TGI?
24.9 µM

Given the compound NC(N)=NS(=O)(=O)c1ccc(NC(=O)c2ccc3[nH]c4ccccc4c(=O)c3c2)cc1 , what is its reported TGI?
> 100 µM

Given the compound CN(C)C(=O)C1CCN(Cc2c[nH]c3ccccc23)CC1 , what is its reported TGI?
> 100 µM

Given the compound Cc1cc(C)n(CN(Cn2nc(C)cc2C)c2ccccc2)n1 , what is its reported TGI?
27.6 µM

Given the compound CC(=O)O[C@H]1C(=O)[C@@]2(C)[C@H]([C@H](OC(=O)c3ccccc3)[C@@]3(O)C[C@H](O)C(C)=C1C3(C)C)[C@]1(OC(C)=O)CO[C@@H]1C[C@@H]2O , what is its reported TGI?
17.1 µM

Given the compound CC(=O)OCC(OC(C)=O)C(OC(C)=O)C(OC(C)=O)C(/C=N\Nc1nc2ccccc2c(=O)[nH]1)=N/Nc1nc2ccccc2c(=O)[nH]1 (stereo not given) , what is its reported TGI?
> 100 µM

----------
Overview of reported TGI across a group of molecules:
System: HCT-116 colon
Test: NCI tumour cell line growth inhibition, 48 h

Reference set (10 entries):
| molecule | value.type | observed.measurement |
| --- | --- | --- |
| Cc1nc(Nc2ccccc2)sc1C(=O)CC(=O)C(=O)NC12CC3CC(CC(C3)C1)C2 | TGI | > 100 µM |
| Cc1ccc(NC(=O)CC/C(CC(=O)C(C)(C)C)=N\Nc2ccc([N+](=O)[O-])cc2[N+](=O)[O-])cc1C | TGI | > 100 µM |
| Oc1cc(CN2COc3ccccc32)c(O)cc1CNC1CCCCC1 | TGI | 35.3 µM |
| CCCCCCCCCOC(=S)NCCCCC | TGI | 44.8 µM |
| COC(=O)c1cc(C)n(CN(Cc2ccccc2)Cn2nc(C(=O)OC)cc2C)n1 | TGI | > 59.8 µM |
| CC[C@@H](/C=C\CCC1(C[C@@H](N)CCC=C(C)C)OCCO1)O[Si](C(C)C)(C(C)C)C(C)C | TGI | 31.4 µM |
| O=C(O)CCSC(=O)Nc1ccccc1Cl | TGI | > 100 µM |
| COC(=O)c1c2c(cc3c1CC1(Cc4cc5c(cc4C1)CCC5)C3)CCC2 | TGI | > 100 µM |
| N#CCCN(CCC#N)c1ccc(/C=C2\N=C(c3cc([N+](=O)[O-])ccc3Cl)N(NC(=O)CC(=O)Nc3ccccc3Cl)C2=O)cc1 | TGI | > 100 µM |
| CC(=O)Oc1c2oc3cc(O)c(O)cc3c2c(OC(C)=O)c2oc3cc(O)c(O)cc3c12 | TGI | 38.2 µM |

Given the molecule Nc1ccccc1N=Nc1c(S(=O)(=O)O)cc2cc(S(=O)(=O)O)cc(O)c2c1O , what is its reported TGI?
> 100 µM

Given the molecule Cc1ccc(-c2cc(-c3c(C)nn(C)c(=O)c3N)[nH]n2)cc1 , what is its reported TGI?
> 100 µM

Given the molecule COc1ccc2c(CCNS(=O)(=O)c3ccccc3)c(C(C)=O)[nH]c2c1 , what is its reported TGI?
> 100 µM

Given the molecule CSc1ccc(C2=NN(C(C)=O)C(c3ccc(F)cc3)C2)cc1 (stereo unspecified) , what is its reported TGI?
20.1 µM

Given the molecule CC(=N)N(C)O , what is its reported TGI?
> 100 µM

Given the molecule C/C=C(/C)C(=O)OC1C=C(CO)C(=O)C(OC(=O)C(C)(O)C(C)Cl)C1C(C)C (stereo unspecified) , what is its reported TGI?
2.49 µM
